Tgt: R139A Bcl-xL (human, UniProt Q07817-1 1-208, R139A)
Sequence (Q07817 1-208 R139A): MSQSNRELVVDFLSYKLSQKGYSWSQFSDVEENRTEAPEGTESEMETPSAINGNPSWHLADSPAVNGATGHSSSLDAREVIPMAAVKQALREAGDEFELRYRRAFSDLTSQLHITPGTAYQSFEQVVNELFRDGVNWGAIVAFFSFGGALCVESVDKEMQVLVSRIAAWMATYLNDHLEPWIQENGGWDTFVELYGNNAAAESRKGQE
Assay method text: fluorescence polarisation
Ends that are not written are not given here. * marks the point of attachment. FITC = O=C1OC2(c3ccc(O)cc3Oc3cc(O)ccc32)c2ccc(NC(=S)*)cc21
Observation type: pKd
The scale used: pKd is minus the common logarithm of the concentration in molar units.

Challenge: Using the record for {FITC}-HQAEVQIARKLQCIADQFHRLHVQQ [FITC-Bmf BH3] , state its measured pKd.
Response given: 5.91
